Numbers sourced from the supplement of paper PMC10065799.

phosphorylation enrichment values, listed per item
target: Fyn (UniProt P06241); assay: phosphorylation enrichment, bacterial display (enrichment ratio); higher = better substrate or ligand; peptides without Tyr show the background;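 also: 11-residue human phosphosite peptides and single-mutation variants displayed on the E. coli surface, counted by deep sequencing, each peptide's frequency after selection divided by its frequency in the unselected input library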;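 also: frequency after pTyr selection over input frequency; kinase dosed for 20-30% of maximal phosphorylation in three min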
Sequence (P06241 whole entry, looked up): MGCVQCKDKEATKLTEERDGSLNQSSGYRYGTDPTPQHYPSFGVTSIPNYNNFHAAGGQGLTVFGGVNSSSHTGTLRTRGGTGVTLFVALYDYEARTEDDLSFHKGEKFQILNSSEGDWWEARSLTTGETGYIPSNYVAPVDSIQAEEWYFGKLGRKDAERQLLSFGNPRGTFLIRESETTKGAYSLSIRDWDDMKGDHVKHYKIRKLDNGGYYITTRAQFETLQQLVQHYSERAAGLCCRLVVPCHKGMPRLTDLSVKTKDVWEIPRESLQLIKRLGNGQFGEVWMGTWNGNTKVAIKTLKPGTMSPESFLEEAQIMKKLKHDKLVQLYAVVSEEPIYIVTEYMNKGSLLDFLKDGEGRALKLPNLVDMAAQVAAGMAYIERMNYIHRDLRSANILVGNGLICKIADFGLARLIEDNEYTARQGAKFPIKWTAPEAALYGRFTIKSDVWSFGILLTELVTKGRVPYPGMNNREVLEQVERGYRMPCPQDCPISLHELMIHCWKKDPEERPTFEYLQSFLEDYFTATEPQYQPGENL

- sequence-chain: "PPGRSYSPCDY [TNS1_Y793_Y796C]"
  target-under-test: "Fyn (UniProt P06241)"
  phosphorylation enrichment: 0.922
- sequence-chain: "KRLKDYLMVLQ [USP25_Y425_T427M]"
  target-under-test: "Fyn (UniProt P06241)"
  phosphorylation enrichment: 0.456
- sequence-chain: "HNLFSYPTKHE [MYO3A_Y1396_YF]"
  target-under-test: "Fyn (UniProt P06241)"
  phosphorylation enrichment: 0.631
- sequence-chain: "FPPTHYIRRVP [SLC4A11_Y820_YF]"
  target-under-test: "Fyn (UniProt P06241)"
  phosphorylation enrichment: 0.473
- sequence-chain: "TKDTFYKQPMV [GBA_Y451_F456V]"
  target-under-test: "Fyn (UniProt P06241)"
  phosphorylation enrichment: 0.358
- sequence-chain: "PESCLYKESWI [IQGAP2_Y630_L635I]"
  target-under-test: "Fyn (UniProt P06241)"
  phosphorylation enrichment: 0.493
- sequence-chain: "RVQKRYIFDNV [RCN1_Y115]"
  target-under-test: "Fyn (UniProt P06241)"
  phosphorylation enrichment: 0.319
- sequence-chain: "LWQSIYNLDAE [TNNT2_Y251_E254D]"
  target-under-test: "Fyn (UniProt P06241)"
  phosphorylation enrichment: 9.69
- sequence-chain: "PQQLWYTHKKK [UBTF_Y207_E210K]"
  target-under-test: "Fyn (UniProt P06241)"
  phosphorylation enrichment: 0.52
- sequence-chain: "QNAGDYYDLYG [PTPN11_Y62_T59A]"
  target-under-test: "Fyn (UniProt P06241)"
  phosphorylation enrichment: 5.41
- sequence-chain: "ISRDVYSTDYY [NTRK2_Y702_M697I]"
  target-under-test: "Fyn (UniProt P06241)"
  phosphorylation enrichment: 3.34
- sequence-chain: "HSREDYFECFQ [ZIM2_Y411_Q408R]"
  target-under-test: "Fyn (UniProt P06241)"
  phosphorylation enrichment: 0.598
- sequence-chain: "CDIARYIVSQL [MAST2_Y461_P459A]"
  target-under-test: "Fyn (UniProt P06241)"
  phosphorylation enrichment: 0.447
- sequence-chain: "RFVFFYSFLLK [PTEN_Y178_YF]"
  target-under-test: "Fyn (UniProt P06241)"
  phosphorylation enrichment: 0.623
- sequence-chain: "DAASNYARGHY [TUBA3E_Y103]"
  target-under-test: "Fyn (UniProt P06241)"
  phosphorylation enrichment: 0.353
- sequence-chain: "KSLSQYLEMDK [CAGE1_Y438_V435L]"
  target-under-test: "Fyn (UniProt P06241)"
  phosphorylation enrichment: 0.445
- sequence-chain: "IIRYNYLLDVL [FGFR4_Y237_S232I]"
  target-under-test: "Fyn (UniProt P06241)"
  phosphorylation enrichment: 0.476
- sequence-chain: "ATVRPYRPYII [LRP5_Y1528_A1525V]"
  target-under-test: "Fyn (UniProt P06241)"
  phosphorylation enrichment: 0.518
- sequence-chain: "RDIHDYIKHLG [UNC13C_Y308]"
  target-under-test: "Fyn (UniProt P06241)"
  phosphorylation enrichment: 0.576
- sequence-chain: "SVVVPYEPREV [TP53_Y220_P223R]"
  target-under-test: "Fyn (UniProt P06241)"
  phosphorylation enrichment: 0.473
- sequence-chain: "RLEGVYRNNID [PTEN_Y46]"
  target-under-test: "Fyn (UniProt P06241)"
  phosphorylation enrichment: 0.675
- sequence-chain: "QPGTDYKIYRY [FN1_Y1970_L1974R]"
  target-under-test: "Fyn (UniProt P06241)"
  phosphorylation enrichment: 0.468
- sequence-chain: "FSNVLYRPRGA [TMIGD2_Y197_YF]"
  target-under-test: "Fyn (UniProt P06241)"
  phosphorylation enrichment: 0.437
- sequence-chain: "SNVEQYQAMVT [TPR_Y965]"
  target-under-test: "Fyn (UniProt P06241)"
  phosphorylation enrichment: 0.506
- sequence-chain: "RDVEQYVNNVN [PCDH19_Y1097_L1094V]"
  target-under-test: "Fyn (UniProt P06241)"
  phosphorylation enrichment: 0.577
- sequence-chain: "DYTEAYNPKIK [CLK1_Y305]"
  target-under-test: "Fyn (UniProt P06241)"
  phosphorylation enrichment: 0.456
- sequence-chain: "GRRNTCFASIA [ACADM_Y352_Y352C_YF]"
  target-under-test: "Fyn (UniProt P06241)"
  phosphorylation enrichment: 0.401
- sequence-chain: "CDTKLYTSVPN [DNTTIP2_Y427_A430V]"
  target-under-test: "Fyn (UniProt P06241)"
  phosphorylation enrichment: 0.655
- sequence-chain: "IYETDYYQKGG [INSR_Y1189_R1191Q]"
  target-under-test: "Fyn (UniProt P06241)"
  phosphorylation enrichment: 1.46
- sequence-chain: "GRPMDYQVSIT [OTOF_Y254]"
  target-under-test: "Fyn (UniProt P06241)"
  phosphorylation enrichment: 0.403
- sequence-chain: "MAQDIYRASFF [ALK_Y1278_R1275Q_YF]"
  target-under-test: "Fyn (UniProt P06241)"
  phosphorylation enrichment: 1.52
- sequence-chain: "TLGPFYPSLLF [CRYAA_Y18_R21L]"
  target-under-test: "Fyn (UniProt P06241)"
  phosphorylation enrichment: 0.535
- sequence-chain: "EEGESHVCSSD [DCX_Y125_Y125H]"
  target-under-test: "Fyn (UniProt P06241)"
  phosphorylation enrichment: 0.54
- sequence-chain: "TSQSQYSSFRE [CCDC170_Y323_F324S]"
  target-under-test: "Fyn (UniProt P06241)"
  phosphorylation enrichment: 1.37
- sequence-chain: "NPETCYQRLKK [TK2_Y190]"
  target-under-test: "Fyn (UniProt P06241)"
  phosphorylation enrichment: 0.412
- sequence-chain: "RGESFYQDRMN [RARS_Y338]"
  target-under-test: "Fyn (UniProt P06241)"
  phosphorylation enrichment: 0.411
- sequence-chain: "PARLEYFENEK [IRS1_Y46_YF]"
  target-under-test: "Fyn (UniProt P06241)"
  phosphorylation enrichment: 0.471
